The following compounds are listed with their measured Residual activity in % (residual activity of the NCBE) values.
system: Na+-dependent Cl−/HCO3− exchanger (NCBE); assay: Inhibition of the Na+-dependent Cl−/HCO3− exchanger (NCBE) in human endothelial cells (pHi recovery, BCECF fluorescence, FLIPR); assay type: cell-based; details: inhibitor concentration of 10 μM; human endothelial cells (ECV-304); relative to 100% and 0% pHi recovery controls, 50 μM HOE 642 present
quantity_name: Residual activity in % (residual activity of the NCBE) (%)

>>> recorded_measurement("COc1nc(-c2ccccc2)n(Cc2ccc(-c3ccccc3S(=O)(=O)NC#N)cc2)c1C(C)=O")
48.8
>>> recorded_measurement("CCCCc1nc(SC)c(C(=O)OCC)n1Cc1cccc(-c2ccc(S(=O)(=O)NC#N)cc2C(F)(F)F)c1")
65.3
>>> recorded_measurement("CCCCc1nc(SC)c(C(=O)OCC)n1Cc1cccc(-c2ccccc2S(=O)(=O)NC#N)c1")
39.7
>>> recorded_measurement("CCCCc1nc(SC)c(C(=O)OCC)n1Cc1ccc(-c2ccc(S(=O)(=O)NC#N)cc2C)cc1")
34.2
>>> recorded_measurement("CCCCc1nc(SC)c(C(=O)OCC)n1Cc1cccc(-c2ccc(S(=O)(=O)NC#N)cc2C)c1")
70.8
>>> recorded_measurement("CCCCc1nc(SC)c(C(=O)OCC)n1Cc1ccc(-c2ccccc2S(=O)(=O)NC#N)cc1")
17.7
